- measurementDescription: rescue of nicotinamide-shortened yeast lifespan – S. cerevisiae, OD615, primary screen (AID 775);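 further: 0% = nicotinamide-treated wells and 100% = cells grown without nicotinamide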
- conditions: S. cerevisiae growth with nicotinamide, at 10 µM, hits give high values, deaD strain in restrictive glucose medium
The campaign covered roughly 130,000 compounds. About 900 (0.69%) were called active. The full list was thinned out, with actives kept by preference.
readoutKind: inhibition of the nicotinamide effect (%)
Numbers only, in %.

Below, 5 molecules whose answers are already recorded.
{"columns": ["molecule", "val"],
 "data": [
  ["Cc1ccc(-c2nnc(SCC(=O)N/N=C/c3cccs3)n2-c2ccc(C)cc2)cc1", -1.13],
  ["CC(C)C(C)(C#N)NC(=O)CSc1nc2scc(-c3ccccc3)c2c(=O)[nH]1 (configuration not stated)", 7.12],
  ["CC(C)CNC(=S)NC(=O)c1ccc(Cl)cc1", -5.06],
  ["CCOC(=O)NN1C(=O)c2ccccc2NC1c1cccc(O)c1 (configuration not stated)", -1.57],
  ["Cc1cc(Cl)ccc1OCCCC(=O)NCc1ccncc1", 1.85]
]}

Quick request: inhibition of the nicotinamide effect for each listed item, please.
1. COc1ccc(COC(=O)N/N=C(\C)CC(=O)Nc2ccc(Cl)cc2)cc1
2. Cc1ccc(C(=O)OC2=CC(=O)CC(C)(C)C2)cc1

Ans:
[-3.92, 72.5]
